experimentSummary: blockers of mitochondrial fusion, WT vs mutant – cell-based, chemical genetic, wild-type and mutant, confirmation (AID 1361)
conditionNotes: Cell-based mitochondrial fusion phenotype, imaging, WT cells
Activity calls are given as the source filed them. How the calls were made is not given here.
Bench note: report the call from 1 (active), 0 (inactive)

Worked set:
- smilesStr: "CCCCCC[n+]1c(-c2ccccc2)csc1Nc1ccccc1"
  group: 1
- smilesStr: "Cc1cccn2c(=O)c(C=NCc3ccco3)c(Nc3ccc(SC(F)F)cc3)nc12"
  group: 0
- smilesStr: "CC(C)CNC(=S)N1CCN(C(c2ccccc2)c2ccccc2)CC1"
  group: 1
- smilesStr: "COc1cc(SC#N)ccc1N=Cc1c(C)[nH]n(-c2ccc(C)cc2)c1=O"
  group: 1
- smilesStr: "Cc1oc(-c2ccccc2Cl)nc1CN1C(=O)CN=C(c2ccccc2)c2ccccc21"
  group: 1

Next, consider the following molecule.
Query: Could you kindly confirm the outcome this assay logged for O=c1c2ccccc2nc2n1C1(CCCCC1)Cc1ccccc1-2 ?
Result: 1
